Source: paper PMC11206207

Test system: AGS cells
EXPERIMENTAL_PROTOCOL: Cell viability assay
Format: cell-based
CONDITION_DESCRIPTION: read-out: cellular inhibitory activity EC50; AGS cells, 24 hours
Numbered stars: 1 amine (or outer) side, 2 acyl side, 3 side chain; on linkers, the order of the positions; unused ones are H or OH. Bridge positions count the residues as written; N and C are the ends. Ends that are not written are not given here. X1 = O=C(C[*:2])Nc1cc(NC(=O)C[*:3])cc(C(=O)[*:1])c1
PROPERTY: EC50 (µM)

{"SUBSTANCE": "PKKKRKVDPKKKRKVDPKKKRKVNGLPKTGLTSWVSCHFLRSLCGGSG-NH2 (linker 28-37-44 via X1; C-terminus assumed) [16-NLS]", "PROPERTY": "EC50", "UNIT_LABEL": "µM", "MEASURED_VALUE": 8.3}
